Values compiled from ChEMBL document CHEMBL1152796.

Tested on: Candida albicans
Method: Antifungal activity against Candida albicans isolate after 72 hrs by twofold serial dilution method
Format: functional
Property Measured: MIC (µg/mL)

Reference set (4 entries):
Molecule: Clc1ccc(COC(Cn2ccnc2)c2ccc(Cl)cc2Cl)c(Cl)c1 (stereo not drawn)
Unit Name: µg/mL
MIC: 3.12
//
Molecule: Clc1ccccc1C(c1ccccc1)(c1ccccc1)n1ccnc1
Unit Name: µg/mL
MIC: 6.25
//
Molecule: Sc1nnc(COC(Cn2nnnc2Cc2ccccc2)c2ccc(Cl)cc2)n1-c1ccc(Cl)cc1 (stereo not drawn)
Unit Name: µg/mL
MIC: 25
//
Molecule: Sc1nnc(COC(Cn2nnnc2Cc2ccccc2)c2ccc(Cl)cc2)o1 (stereo not drawn)
Unit Name: µg/mL
MIC: 100

P: Sc1nnc(COC(Cn2nnnc2Cc2ccccc2)c2ccc(Cl)cc2)n1-c1ccccc1 (stereo not drawn)
Q: Cc1cc(C)n(C(=O)COC(Cn2nnnc2Cc2ccccc2)c2ccc(Cl)cc2)n1 (stereo not drawn)
R: Clc1ccc(C(Cn2nnnc2Cc2ccccc2)OCc2nnc(Nc3ccccc3)o2)cc1 (stereo not drawn)
Q. Rank the 3 molecules: largest MIC first, smallest last. Provide the labels, sequenced as the question asks.
A. Q, P, R
(Q: 100 µg/mL, P: 50 µg/mL, R: 25 µg/mL)

----------
Tested on: Mus musculus
Method: Anticonvulsant activity in Wister albino mouse assessed as protection against subcutaneous metrazole-induced seizures at 100 mg/kg, ip administered 30 mins before metrazole challenge measured after 30 mins
Assay type: functional
Reported Conditions: route intraperitoneal
Readings of Activity for the listed compounds
Reply with just the number (in %).

// known answers, use as guide
Compound: O=C(COC(Cn1nnnc1Cc1ccccc1)c1ccc(Cl)cc1)N/N=C/c1ccc(Cl)cc1 (configuration not stated)
Activity / %: 50
--
Compound: Cc1cc(C)n(C(=O)COC(Cn2nnnc2Cc2ccccc2)c2ccc(Cl)cc2)n1 (configuration not stated)
Activity / %: 0
--
Compound: OC(Cn1nnc(-c2ccccc2)n1)c1ccc(Cl)cc1 (configuration not stated)
Activity / %: 0

Q. Which Activity value belongs to Sc1nnc(COC(Cn2nnc(-c3ccccc3)n2)c2ccc(Cl)cc2)n1-c1ccccc1 (configuration not stated) ?
A. 33

Q. Param item = Cc1cc(C)n(C(=O)COC(Cn2nnc(-c3ccccc3)n2)c2ccc(Cl)cc2)n1 (configuration not stated) ; retrieve measured Activity.
A. 0

Q. Consider the compound shown here: O=C(COC(Cn1nnc(-c2ccccc2)n1)c1ccc(Cl)cc1)NNC(=S)Nc1ccccc1 (configuration not stated) What is its recorded Activity?
A. 80

----------
Tested on: Micrococcus luteus
Method: Antibacterial activity against Micrococcus luteus ATCC 21881 after 24 to 48 hrs by twofold serial dilution method
Format: functional
Property Measured: MIC (µg/mL)

Compound: Cc1cc(C)n(C(=O)COC(Cn2nnc(-c3ccccc3)n2)c2ccc(Cl)cc2)n1 (stereo not given)
Unit Name: µg/mL
MIC: 50

P: Sc1nnc(COC(Cn2nnc(-c3ccccc3)n2)c2ccc(Cl)cc2)n1-c1ccccc1 (stereo not given)
Q: Sc1nnc(COC(Cn2nnnc2Cc2ccccc2)c2ccc(Cl)cc2)o1 (stereo not given)
Q. Problem: Given the entries P and Q , determine which has the lower reported MIC. // caller expects the label of the chosen entry
A. P
(P: 50 µg/mL, Q: 100 µg/mL)

----------
Test system: Escherichia coli
Method: Antibacterial activity against Escherichia coli ATCC 25922 after 24 to 48 hrs by twofold serial dilution method
Assay type: functional
Property Measured: MIC (µg/mL)

Below are worked cases with known answers.
Compound: CC1(C)S[C@@H]2[C@H](NC(=O)[C@H](N)c3ccccc3)C(=O)N2[C@H]1C(=O)O.O.O.O [AMPICILLIN TRIHYDRATE]
Unit Name: µg/mL
Recorded Result: 6.25
--
Compound: Sc1nnc(COC(Cn2nnnc2Cc2ccccc2)c2ccc(Cl)cc2)n1-c1ccc(Cl)cc1 (stereo unspecified)
Unit Name: µg/mL
Recorded Result: 50
--
Compound: Cc1cc(C)n(C(=O)COC(Cn2nnnc2Cc2ccccc2)c2ccc(Cl)cc2)n1 (stereo unspecified)
Unit Name: µg/mL
Recorded Result: 100

1: Sc1nnc(COC(Cn2nnnc2Cc2ccccc2)c2ccc(Cl)cc2)n1-c1ccccc1 (stereo unspecified)
2: Clc1ccc(C(Cn2nnnc2Cc2ccccc2)OCc2nnc(Nc3ccccc3)o2)cc1 (stereo unspecified)
Q. MIC comparison. Which is larger, 1 or 2 ? Pick one; state its label.
A. 1

----------
Tested on: Klebsiella pneumoniae
Method: Antibacterial activity against Klebsiella pneumoniae isolate after 24 to 48 hrs by twofold serial dilution method
Assay type: functional
Here, each record is paired with measured MIC data.

Compound: Sc1nnc(COC(Cn2nnnc2Cc2ccccc2)c2ccc(Cl)cc2)o1 (configuration not stated)
MIC: ≥ 200 µg/mL

Now, please, on to the next compound.
Q. Return reported MIC; argument: Clc1ccc(C(Cn2nnc(-c3ccccc3)n2)OCc2nnc(Nc3ccccc3)o2)cc1 (configuration not stated)
A. 100 µg/mL

----------
Test system: Bacillus subtilis
Method: Antibacterial activity against Bacillus subtilis NRRL B-14819 after 24 to 48 hrs by twofold serial dilution method
Format: functional
Property Measured: MIC (µg/mL)

Compound: O=C(COC(Cn1nnnc1Cc1ccccc1)c1ccc(Cl)cc1)N/N=C/c1ccc(Cl)cc1 (centres undefined)
System Name: Bacillus subtilis
Unit Name: µg/mL
Recorded Result: 100
//
Compound: O=C(COC(Cn1nnc(-c2ccccc2)n1)c1ccc(Cl)cc1)NNC(=S)Nc1ccccc1 (centres undefined)
System Name: Bacillus subtilis
Unit Name: µg/mL
Recorded Result: 100
//
Compound: CC1(C)S[C@@H]2[C@H](NC(=O)[C@H](N)c3ccccc3)C(=O)N2[C@H]1C(=O)O.O.O.O [AMPICILLIN TRIHYDRATE]
System Name: Bacillus subtilis
Unit Name: µg/mL
Recorded Result: 12.5
//
Compound: Sc1nnc(COC(Cn2nnnc2Cc2ccccc2)c2ccc(Cl)cc2)n1-c1ccccc1 (centres undefined)
System Name: Bacillus subtilis
Unit Name: µg/mL
Recorded Result: 100

----------
Test system: Escherichia coli
Method: Antibacterial activity against Escherichia coli ATCC 25922 after 24 to 48 hrs by twofold serial dilution method
Assay type: functional
Property Measured: MIC (µg/mL)

Answered cases to consult:
Compound: O=C(COC(Cn1nnnc1Cc1ccccc1)c1ccc(Cl)cc1)NNC(=S)Nc1ccccc1 (stereo not given)
Property Measured: MIC
Recorded Result: 100
//
Compound: O=C(COC(Cn1nnc(-c2ccccc2)n1)c1ccc(Cl)cc1)N/N=C/c1ccc(Cl)cc1 (stereo not given)
Property Measured: MIC
Recorded Result: 100
//
Compound: Clc1ccc(C2Cn3nnnc3Cc3ccccc32)cc1 (stereo not given)
Property Measured: MIC
Recorded Result: 50

1: Clc1ccc(C(Cn2nnc(-c3ccccc3)n2)OCc2nnc(Nc3ccccc3)o2)cc1 (stereo not given)
2: Sc1nnc(COC(Cn2nnc(-c3ccccc3)n2)c2ccc(Cl)cc2)n1-c1ccccc1 (stereo not given)
Q. Param pair: 1 , 2 . Output: the one whose MIC is numerically greater. Mark your selection by writing its label.
A. 2

I: Sc1nnc(COC(Cn2nnc(-c3ccccc3)n2)c2ccc(Cl)cc2)o1 (stereo not given)
II: Cc1cc(C)n(C(=O)COC(Cn2nnc(-c3ccccc3)n2)c2ccc(Cl)cc2)n1 (stereo not given)
Q. Returns: the label, I or II , whose recorded MIC is the lower number. // caller expects the label of the chosen entry
A. I
(I: 25 µg/mL, II: 50 µg/mL)

----------
System: Klebsiella pneumoniae
Method: Antibacterial activity against Klebsiella pneumoniae isolate after 24 to 48 hrs by twofold serial dilution method
Format: functional
Examples of compounds with documented MIC follow.

Use the examples below as a reference point.
Compound: Sc1nnc(COC(Cn2nnc(-c3ccccc3)n2)c2ccc(Cl)cc2)o1 (stereo not given)
System Name: Klebsiella pneumoniae
MIC: 100 µg/mL
//
Compound: Sc1nnc(COC(Cn2nnnc2Cc2ccccc2)c2ccc(Cl)cc2)n1-c1ccccc1 (stereo not given)
System Name: Klebsiella pneumoniae
MIC: ≥ 200 µg/mL
//
Compound: O=C(COC(Cn1nnnc1Cc1ccccc1)c1ccc(Cl)cc1)N/N=C/c1ccc(Cl)cc1 (stereo not given)
System Name: Klebsiella pneumoniae
MIC: ≥ 200 µg/mL
//
Compound: Cc1cc(C)n(C(=O)COC(Cn2nnnc2Cc2ccccc2)c2ccc(Cl)cc2)n1 (stereo not given)
System Name: Klebsiella pneumoniae
MIC: ≥ 200 µg/mL

Okay, now this compound:
Q. Which measured MIC value corresponds to Clc1ccc(C2Cn3nnnc3Cc3ccccc32)cc1 (stereo not given) ?
A. ≥ 200 µg/mL

----------
System: Klebsiella pneumoniae
Method: Antibacterial activity against Klebsiella pneumoniae isolate after 24 to 48 hrs by twofold serial dilution method
Format: functional
Property Measured: MIC

Some solved cases for reference:
Compound: Clc1ccc(/C=C/n2nnc(-c3ccccc3)n2)cc1
MIC: ≥ 200 µg/mL
--
Compound: Sc1nnc(COC(Cn2nnc(-c3ccccc3)n2)c2ccc(Cl)cc2)n1-c1ccccc1 (centres undefined)
MIC: 50 µg/mL
--
Compound: NNC(=O)COC(Cn1nnc(-c2ccccc2)n1)c1ccc(Cl)cc1 (centres undefined)
MIC: ≥ 200 µg/mL

Below: the item to evaluate.
Q. Query (compound): Clc1ccc(C(Cn2nnnc2Cc2ccccc2)OCc2nnc(Nc3ccccc3)o2)cc1 (centres undefined) ; field requested: MIC
A. ≥ 200 µg/mL
